molecular target: T1, Growth and differentiation factor-8 (GDF-8), mature human (human, UniProt O14793 267-375, conjugated to biotin in the ActRIIB ELISA and in the Fc gamma receptor SPR (site not stated)); assay: SPR
T1 construct: also called myostatin; human GDF-8
ENDPOINT LABEL: pKd
Schema: pKd number; meaning minus log10 of the concentration expressed in molar units.

These solved cases illustrate the format of a correct answer.
[[record]]
binder = "OGD1.4.0 humanized anti-GDF-8 antibody (VH4 and VL0) (antibody, V domains shown, VH4 carries M99F and N101D in CDR3) VH: EVQLLESGGGLVQPGGSLRLSCAASGFTFSSYAMSWVRQAPGKGLEWVSTISSGGSYTSYPDSVKGRFTISRDNSKNTLYLQMNSLRAEDTAVYYCAKQDYAFDYWGQGTLVTVSS VL: DIQMTQSPSSLSASVGDRVTITCKASQDVSTAVAWYQQKPGKAPKLLIYSASYRYTGVPSRFSGSGSGTDFTLTISSLQPEDFATYYCQQHYSTPWTFGGGTKVEIK"
endpoint_label = "pKd"
observed_measurement = 9.55

[[record]]
binder = "OGD1.0.5 humanized anti-GDF-8 antibody (VH0 and VL5) (antibody, V domains shown, VL5 is VL3 with W96L) VH: EVQLLESGGGLVQPGGSLRLSCAASGFTFSSYAMSWVRQAPGKGLEWVSTISSGGSYTSYPDSVKGRFTISRDNSKNTLYLQMNSLRAEDTAVYYCAKQDYAMNYWGQGTLVTVSS VL: DIQMTQSPSSLSASVGDRVTITCRASQSISTALNWYQQKPGKAPKLLIYSASSLQSGVPSRFSGSGSGTDFTLTISSLQPEDFATYYCQQSYSTPLTFGGGTKVEIK"
endpoint_label = "pKd"
observed_measurement = 10.24


We next turn to a different binder, shown below.
Measured pKd, OGD1.0.2 humanized anti-GDF-8 antibody (VH0 and VL2) (antibody, V domains shown, Intact antibody produced in COS-1 cells) VH: EVQLLESGGGLVQPGGSLRLSCAASGFTFSSYAMSWVRQAPGKGLEWVSTISSGGSYTSYPDSVKGRFTISRDNSKNTLYLQMNSLRAEDTAVYYCAKQDYAMNYWGQGTLVTVSS VL: DIQMTQSPSSLSASVGDRVTITCKASQDVSTAVAWYQQKPGKAPKLLIYAASSLQSGVPSRFSGSGSGTDFTLTISSLQPEDFATYYCQQHYSTPWTFGGGTKVEIK : 11.84
